Experiment Description: compound effects on multiple myeloma cell viability – MM1S, calcein-AM fluorescence, 48 h, basal, profiling panel (AID 1165); note: test concentration not given here
Reported Conditions: higher = more signal
Below is a list of entries, each paired with its recorded z-score value.

**Q:** For the compound shown here, C=C(CCCC)C(=O)CC[C@@H](OC(=O)c1ccccc1-c1ccccc1C(=O)O)c1ccc(CO)o1 , give the reported z-score.
**A:** 0.227

**Q:** Quick one: z-score of COc1ccccc1CN1C(=O)c2ccccc2[C@](Cc2ccccc2I)(C(=O)NCc2ccccc2)[C@@H]1c1ccc(CO)cc1 ?
**A:** -0.325

**Q:** # z-score lookup, item [N-]=[N+]=NCc1ccccc1[C@@H]1OC(c2ccc(OCCCO)cc2)=N[C@]1(Cc1ccccc1)C(=O)O
**A:** 0.229

**Q:** Which value of z-score has been reported for COCCCNC(=O)[C@@]1(C)c2ccccc2C(=O)N(Cc2ccccc2)[C@H]1c1ccc(CO)cc1 in the records?
**A:** -0.174

**Q:** Quick one: z-score of CCCC[C@H]1OB(O)C[C@H]2C1=C(COc1ccccc1)C[C@H]1C(=O)N(Cc3ccccc3)C(=O)[C@H]12 ?
**A:** -1.09

**Q:** Any idea what its z-score is? The compound is NC(=O)[C@]1(Cc2ccccc2)N=C(c2ccc(OCCCO)cc2)O[C@@H]1c1ccccc1
**A:** -0.598

**Q:** Fill in the blank: the reported z-score of COCCCNC(=O)[C@@]1(Cc2ccccc2I)c2ccccc2C(=O)N(Cc2ccccc2)[C@H]1c1ccc(CO)cc1 is ____.
**A:** -0.657

**Q:** If you can, please state the reported z-score value of [N-]=[N+]=Nc1ccccc1[C@H]1OC(c2ccc(OCCCO)cc2)=N[C@@]1(CCS(=O)(=O)c1ccccc1)C(=O)N1CCOCC1 .
**A:** -0.655

The reported measurements were obtained from PubChem BioAssay.
